Target: human MDR1 (multidrug resistance protein 1) (UniProt P08183 1-1280)
Test: FACS binding, 293T cells expressing human MDR1
result type: EC50 (nM)
Value expressed in nM; do not type the unit.

input: Given the binder B1.178 (antibody, V domains shown) VH: EAQLVESGGALVKPGGSLKLSCSASGFTFSNYAMSWVRQTPEKRLEWVATISSGGTNTYYPGSVKGRFTIARDNAKNTLYLLMSSLRSEDTALYFCARYSNLAWFASWGQGTLVTVSA VL: DVVMTQTPLSLPVSLGDQASISCRSSQSIVHSNGNTYLEWYLQKPGQSPKFLISKVSNRFSGVPDRFSGSGSGTDFTLKISRVEAEDLGIYYCFQGSHVPYTFGGGTKLEIK , write its reported EC50.
output: 16.6
